Biological target: A3 adenosine receptor (Rattus norvegicus)
Sequence (P28647 1-320): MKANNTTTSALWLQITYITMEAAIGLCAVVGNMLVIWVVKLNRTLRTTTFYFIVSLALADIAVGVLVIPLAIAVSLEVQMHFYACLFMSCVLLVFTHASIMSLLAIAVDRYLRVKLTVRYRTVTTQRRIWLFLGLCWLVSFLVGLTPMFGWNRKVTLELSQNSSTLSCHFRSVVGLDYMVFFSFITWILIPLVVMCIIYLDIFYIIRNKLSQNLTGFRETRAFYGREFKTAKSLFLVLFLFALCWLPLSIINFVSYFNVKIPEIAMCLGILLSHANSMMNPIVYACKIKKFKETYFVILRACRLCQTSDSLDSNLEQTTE
Experiment: cell-based
Assay type: cell-based
measurementName: EC50 (nM)
Give just the numeric value; nM need not be written.

Q: Specify EC50 for CCNC(=O)[C@H]1O[C@@H](n2cnc3c(N)nc(NCCc4ccc(CCC(=O)O)cc4)nc32)[C@H](O)[C@@H]1O [CGS21680] and stop.
Result: 144

---

Target: A3 adenosine receptor (Rattus norvegicus)
Assay: biochemical
Type: binding
Details: Table I; 0.5 nM [125I]APNEA
measurementName: IC50

compound | IC50
C[C@@H](Cc1ccccc1)Nc1ncnc2c1ncn2[C@@H]1O[C@H](CO)[C@@H](O)[C@H]1O [S-PIA] | 1140 nM

Q: Specify IC50 for C[C@H](Cc1ccccc1)Nc1ncnc2c1ncn2[C@@H]1O[C@H](CO)[C@@H](O)[C@H]1O [R-PIA] and stop.
Result: 63 nM
